# Measurement Protocol: in vivo
# Study Conditions: SD, rat, iv, 1 mg/kg
In this section we review reported half-life values for a set of molecules.
Measurement Label: half-life (h)

molecule="N#Cc1c(-c2c[nH]c3c(F)cc(F)cc23)nc(NC2C3CCC(CC3)C2C(=O)O)c(F)c1-c1ccco1 (racemic)" value_reported=1.24
molecule="N#Cc1c(-c2c[nH]c3ncc(F)cc23)nc(NC2C3CCC(CC3)C2C(=O)O)c(F)c1C1CC1 (racemic)" value_reported=2.15
molecule="N#Cc1c(-c2c[nH]c3c(F)cc(F)cc23)nc(NC2C3CCC(CC3)C2C(=O)O)c(F)c1-c1ccccc1 (racemic)" value_reported=1.31
molecule="N#Cc1c(-c2c[nH]c3c(F)cc(F)cc23)nc(NC2C3CCC(CC3)C2C(=O)O)c(F)c1-c1ccc(C(F)(F)F)cc1 (racemic)" value_reported=1.13
